Assay: Pharmacokinetics: plasma and brain concentration after IP injection
Assay type: in vivo, mouse
Settings: female, CD-1, mouse; mice, IP 15 mg/kg, 4 h, plasma, mean of 3
Method: FIG. 5. Pharmacokinetic data for an exemplary peptide relative to setmelanotide. Peptides at 1.5 mg/mL in PBS containing 10% DMSO and 10% PEG-400 were given by IP injection (15 mg/kg) to female CD-1 mice (n=15). […] Peptide concentrations at times indicated were determined by LC MS/MS, using non-zero standards in blank Plasma and Brain Samples. […]
Positions of bridges follow the written chain, without caps; N, C: chain ends. Non-standard residues stand in square brackets, D forms with d. Residues, ends and D or L forms follow the SMILES beside them. Nle = CCCC[C@H](N)C(=O)O
measured endpoint: level at 4 h (ng/mL)
Enter your answer as a number in ng/mL; do not include the unit.

// query Which measured level at 4 h value corresponds to CC(=O)N[C@@H](CCCN=C(N)N)C(=O)N[C@H]1CSSC[C@H](C(N)=O)NC(=O)[C@H](Cc2c[nH]c3ccccc23)NC(=O)C(CCCN=C(N)N)NC(=O)[C@@H](Cc2ccccc2)NC(=O)[C@H](Cc2cnc[nH]2)NC(=O)[C@@H](C)NC1=O (some centres unmarked) [CTX-1200, reference compound] ?
// result 3350

// query For CCCC[C@H](NC(=O)[C@H](CCCNC(=N)N)NC(C)=O)C(=O)N[C@H]1CSSC[C@@H](C(N)=O)NC(=O)[C@H](Cc2c[nH]c3ccccc23)NC(=O)[C@H](CCCNC(=N)N)NC(=O)[C@@H](Cc2ccccc2)NC(=O)[C@H](Cc2c[nH]cn2)NC1=O [CTX-1227, Arg-Nle-cyclo(Cys-His-D-Phe-Arg-Trp-Cys)] (Ac-R[Nle]CH[dF]RWC-NH2; disulfide 3-8 (inferred)) , what is its reported level at 4 h?
// result 25400
